# Test system: L1210 leukemia ip in BDF1 mice, survival T/C
# EXPERIMENTAL_PROTOCOL: NCI In Vivo Anticancer Drug Screen. Data for tumor model L1210 Leukemia (intraperitoneal) in B6D2F1 (BDF1) mice
# CONDITIONS_USED: endpoint: mean survival time; dose: 100.0 mg/kg/injection; schedule: Q01DX009 (ip); vehicle: Klucel (hydroxypropylcellulose) (HPC); higher = longer survival
Inconclusive results and toxic doses are left out.
QUANTITY_NAME: T/C

Examples with their reported T/C follow.
| COMPOUND | T/C |
| --- | --- |
| CC(=O)Oc1ccccc1[N+](=O)[O-] | 106 % of control |
| COc1ccccc1OC1CCCCC1OS(C)(=O)=O (configuration not stated) | 95 % of control |
| O=C(N/N=C/c1ccccc1Cl)c1ccccc1NC(=O)C1CC1 | 97 % of control |

[Q] Could you please provide reported T/C for CCC(C)NC(=O)NC (configuration not stated) ? Thanks!
[A] 100 % of control

[Q] Dear colleague, please send me the reported T/C for O=C(Nc1ccc2ccccc2c1)c1ccccc1Cl when you can.
[A] 93 % of control

[Q] Give a short answer stating reported T/C for Cc1cc(=O)n(Cc2ccccc2)c(O)c1C .
[A] 95 % of control

[Q] Specify T/C for c1ccc2cc(-c3csc4ccccc34)ccc2c1 and stop.
[A] 104 % of control

Just for reference, PubChem BioAssay AID248 is where these values come from.
